Parameter pH of the solution before titration: see the listing below.
- measurement notes: pH of API formulations (pH meter)
- Format: physicochemical
- condition info: 2:1 ratio of API to CapAcid

- mol smiles: "CN1CCC[C@@H]1Cc1c[nH]c2ccc(CCS(=O)(=O)c3ccccc3)cc12"
  pH of the solution before titration: 1.42
- mol smiles: "CCCN(CCc1cccs1)[C@H]1CCc2c(O)cccc2C1"
  pH of the solution before titration: 1.66
- mol smiles: "COc1c(OCCCN2CCOCC2)ccc2c1N=C(NC(=O)c1cnc(N)nc1)N1CCN=C21"
  pH of the solution before titration: 2.10
- mol smiles: "N=C(N)c1ccc2cc(OC(=O)c3ccc(N=C(N)N)cc3)ccc2c1"
  pH of the solution before titration: 1.55

----------
- measurement notes: pH of API formulations (pH meter)
- Format: physicochemical
- condition info: CapAcid-API Freebase Formulation (70 mg/mL API FB, 1.1 molar equivalent CapAcid), final pH after titration and dilution

- compound: "NC12CC3CC(CC(C3)C1)C2"
  pH: 6.97
- compound: "COC(=O)[C@@H](N)Cc1ccc(O)c(O)c1"
  pH: 6.97
- compound: "NC1C2CC3CC(C2)CC1C3 (centres unmarked)"
  pH: 7.06
- compound: "CC(N)C12CC3CC(CC(C3)C1)C2 (centres unmarked)"
  pH: 6.98
- compound: "C=CCN1CC[C@]23c4c5ccc(O)c4O[C@H]2C(=O)CC[C@@]3(O)[C@H]1C5"
  pH: 6.01

----------
- measurement notes: Osmolality of API formulations (micro osmometer, triplicate)
- Format: physicochemical
- condition info: API salt Captisol®-Na^+ formulation, 70 mg/mL FB equivalent, 1.1 equivalents Captisol®-Na^+
Parameter Osmolality: see the listing below.
recorded metric: Osmolality (mOsmol/kg)

- mol smiles: "C=CCN1CC[C@]23c4c5ccc(O)c4O[C@H]2C(=O)CC[C@@]3(O)[C@H]1C5"
  recorded metric: "Osmolality"
  unit descriptor: "mOsmol/kg"
  result: 531.7
- mol smiles: "CC[C@H](C)C[C@H](C)CCCCCCCCC(=O)N[C@H]1C[C@@H](O)[C@@H](NCCN)NC(=O)[C@@H]2[C@@H](O)CCN2C(=O)[C@H]([C@H](O)CCN)NC(=O)[C@H]([C@H](O)[C@@H](O)c2ccc(O)cc2)NC(=O)[C@@H]2C[C@@H](O)CN2C(=O)[C@H]([C@@H](C)O)NC1=O"
  recorded metric: "Osmolality"
  unit descriptor: "mOsmol/kg"
  result: 209.3

----------
- measurement notes: pH of API formulations (pH meter)
- Format: physicochemical
- condition info: 70 mg/mL API FB, 1.1 equivalents CapAcid, before NaOH/HCl
Parameter pH of the solution prior to titration: see the listing below.

- compound: "NC1C2CC3CC(C2)CC1C3 (stereo not drawn) [2-Amantadine]"
  pH of the solution prior to titration: 1.29
- compound: "COC(=O)[C@@H](N)Cc1ccc(O)c(O)c1 [Melevodopa]"
  pH of the solution prior to titration: 1.22
- compound: "NC12CC3CC(CC(C3)C1)C2 [1-Amantadine]"
  pH of the solution prior to titration: 1.43
- compound: "CC(N)C12CC3CC(CC(C3)C1)C2 (stereo not drawn) [Rimantadine]"
  pH of the solution prior to titration: 1.93
- compound: "CC[C@H](C)C[C@H](C)CCCCCCCCC(=O)N[C@H]1C[C@@H](O)[C@@H](NCCN)NC(=O)[C@@H]2[C@@H](O)CCN2C(=O)[C@H]([C@H](O)CCN)NC(=O)[C@H]([C@H](O)[C@@H](O)c2ccc(O)cc2)NC(=O)[C@@H]2C[C@@H](O)CN2C(=O)[C@H]([C@@H](C)O)NC1=O [Caspofungin]"
  pH of the solution prior to titration: 7.78
- compound: "Nc1ccncc1N [Amifampridine, Pyridine-3,4-diamine]"
  pH of the solution prior to titration: 9.19
